Assign Kd to each entry below.
target: Grb2 SH2 domain (Homo sapiens, UniProt P62993)
Sequence (P62993 60-152 limits assumed): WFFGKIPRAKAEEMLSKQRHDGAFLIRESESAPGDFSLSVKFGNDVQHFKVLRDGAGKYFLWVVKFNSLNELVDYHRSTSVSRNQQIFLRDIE
Non-standard residues stand in square brackets, D forms with d. Residues, ends and D or L forms follow the SMILES beside them. pY = N[C@@H](Cc1ccc(OP(=O)(O)O)cc1)C(=O)O
Give bare numbers, in µM.

// below: answered molecules
Summary line: CC[C@H](C)[C@H](NC(=O)[C@H](CC(N)=O)NC(=O)[C@H](Cc1c[nH]cn1)NC(=O)[C@H](CCC(N)=O)NC(C)=O)C(=O)N[C@@H](Cc1c[nH]cn1)C(=O)N[C@@H](CO)C(=O)N[C@@H](Cc1ccc(OP(=O)(O)O)cc1)C(=O)N[C@H](C(=O)N[C@@H](CC(N)=O)C(=O)N[C@H](C(=O)N1CCC[C@H]1C(=O)N1CCC[C@H]1C(=O)NCC(N)=O)[C@@H](C)CC)[C@@H](C)CC [Syn-G2-2] (Ac-QHNIHS[pY]INIPPG-NH2) , Grb2 SH2 domain (Homo sapiens, UniProt P62993), reported Kd = 0.00399

Summary line: CC(=O)N[C@@H](CCC(N)=O)C(=O)N[C@@H](CCCCN)C(=O)N[C@@H](CCC(=O)O)C(=O)N[C@@H](C)C(=O)N[C@@H](Cc1c[nH]cn1)C(=O)N[C@@H](Cc1c[nH]cn1)C(=O)N[C@@H](Cc1ccc(OP(=O)(O)O)cc1)C(=O)N[C@H](C(=O)N[C@@H](CC(N)=O)C(=O)N[C@@H](Cc1c[nH]c2ccccc12)C(=O)N[C@@H](CCCNC(=N)N)C(=O)N[C@H](C(=O)NCC(N)=O)[C@@H](C)O)C(C)C [Syn-G2-1] (Ac-QKEAHH[pY]VNWRTG-NH2) , Grb2 SH2 domain (Homo sapiens, UniProt P62993), reported Kd = 0.0318

Summary line: CC[C@H](C)[C@H](NC(=O)[C@H](CC(N)=O)NC(=O)[C@H](Cc1c[nH]cn1)NC(=O)[C@H](Cc1ccc(OP(=O)(O)O)cc1)NC(=O)[C@H](CCCNC(=N)N)NC(=O)[C@H](CCC(N)=O)NC(=O)[C@H](Cc1c[nH]cn1)NC(=O)CNC(=O)[C@H](CC(C)C)NC(=O)[C@H](CCC(N)=O)NC(C)=O)C(=O)N[C@H](C(=O)N1CCC[C@H]1C(=O)NCC(N)=O)[C@@H](C)O [Syn-G2-5] (Ac-QLGHQR[pY]HNITPG-NH2) , Grb2 SH2 domain (Homo sapiens, UniProt P62993), reported Kd = 0.487

We now examine a further molecule.
Summary line: CC[C@H](C)[C@H](NC(=O)[C@H](CCC(N)=O)NC(C)=O)C(=O)N[C@@H](CCC(=O)O)C(=O)N[C@H](C(=O)NCC(=O)N[C@H](C(=O)N[C@@H](Cc1ccc(OP(=O)(O)O)cc1)C(=O)N[C@@H](CCC(N)=O)C(=O)N[C@@H](CC(N)=O)C(=O)N1CCC[C@H]1C(=O)N[C@@H](Cc1c[nH]cn1)C(=O)N[C@@H](CC(N)=O)C(=O)NCC(N)=O)[C@@H](C)O)C(C)C [Syn-G2-7] (Ac-QIEVGT[pY]QNPHNG-NH2) , Grb2 SH2 domain (Homo sapiens, UniProt P62993), reported Kd = 3.24

The reported numbers originate from paper PMC12521615.
